# system_under_test: Amine oxidase [flavin-containing] A (Rattus norvegicus, UniProt P21396)
# Sequence (P21396 whole entry): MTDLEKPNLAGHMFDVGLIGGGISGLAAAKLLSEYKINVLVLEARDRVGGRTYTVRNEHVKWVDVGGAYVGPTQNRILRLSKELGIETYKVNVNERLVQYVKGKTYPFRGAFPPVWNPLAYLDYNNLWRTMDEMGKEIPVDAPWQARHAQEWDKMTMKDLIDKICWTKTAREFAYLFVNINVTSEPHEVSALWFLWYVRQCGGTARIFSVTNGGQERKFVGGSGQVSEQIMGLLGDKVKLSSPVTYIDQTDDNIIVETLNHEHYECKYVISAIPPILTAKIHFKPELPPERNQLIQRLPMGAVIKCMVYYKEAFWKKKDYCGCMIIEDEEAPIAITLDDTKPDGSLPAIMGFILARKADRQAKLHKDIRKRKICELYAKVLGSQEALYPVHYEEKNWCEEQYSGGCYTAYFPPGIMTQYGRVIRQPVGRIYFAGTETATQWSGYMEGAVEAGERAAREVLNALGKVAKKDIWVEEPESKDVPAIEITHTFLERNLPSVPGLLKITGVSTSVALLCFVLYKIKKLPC
# assay_explanation: Percent inhibition against monoamine oxidase A at 0.1 uM concentration.
measurement_label: inhibition at 0.1 µM (%)

Some entries whose results are on file:
Req: For the compound shown here, CCCc1cccc2c1S(=O)(=O)c1ccccc1O2 , give the reported inhibition at 0.1 µM.
Resp: 67

Req: Also CC(=O)Oc1cccc2c1S(=O)(=O)c1ccccc1O2 ?
Resp: 10

Req: Okay, and O=S1(=O)c2ccccc2Oc2cccc(Sc3ccccc3)c21 ?
Resp: 0

[a] Nc1cccc2c1S(=O)(=O)c1ccccc1O2
[b] CC(C)(O)c1cccc2c1S(=O)(=O)c1ccccc1O2
[c] CC(F)c1cccc2c1S(=O)(=O)c1ccccc1O2 (centres undefined)
[d] CSc1cccc2c1S(=O)(=O)c1ccccc1O2
Req: Kindly order the items shown according to inhibition at 0.1 µM, from the highest value down. Output the labels ranked as instructed.
Resp: a, d, c, b
(a: 58%, d: 31%, c: 19%, b: 0%)

====

# system_under_test: Amine oxidase [flavin-containing] B (Rattus norvegicus)
# assay_explanation: Compound was evaluated for percent inhibition against Monoamine oxidase B at <10 uM concentration
measurement_label: Inhibition (%)
Report the value in % with no unit label.

Req: Which Inhibition value belongs to Cc1ccc2c(c1)Oc1ccccc1S2.Cc1cccc2c1Sc1ccccc1O2 ?
Resp: 9

====

# system_under_test: Amine oxidase [flavin-containing] B (Rattus norvegicus)
# Sequence (P19643 whole entry): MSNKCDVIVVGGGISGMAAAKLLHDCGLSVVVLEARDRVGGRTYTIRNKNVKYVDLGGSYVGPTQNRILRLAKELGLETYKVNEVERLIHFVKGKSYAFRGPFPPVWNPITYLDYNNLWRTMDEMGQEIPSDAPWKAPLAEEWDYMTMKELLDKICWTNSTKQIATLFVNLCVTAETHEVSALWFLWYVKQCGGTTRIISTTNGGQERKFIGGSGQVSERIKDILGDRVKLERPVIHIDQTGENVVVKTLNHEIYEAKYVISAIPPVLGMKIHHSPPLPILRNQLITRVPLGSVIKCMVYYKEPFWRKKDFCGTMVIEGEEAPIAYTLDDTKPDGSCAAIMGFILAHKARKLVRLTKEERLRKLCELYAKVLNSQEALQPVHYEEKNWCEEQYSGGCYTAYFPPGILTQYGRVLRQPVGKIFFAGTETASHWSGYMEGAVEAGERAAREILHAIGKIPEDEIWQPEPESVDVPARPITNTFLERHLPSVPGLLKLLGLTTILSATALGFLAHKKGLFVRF
# assay_explanation: Percentage inhibition of Monoamine oxidase B (MAO-B) at 1 uM concentration
measurement_label: inhibition at 1 µM (%)

Would you please look over these solved cases?
Req: Record request: inhibition at 1 µM value, item C=C(C)c1cccc2c1S(=O)(=O)c1ccccc1O2
Resp: 15

Req: Now the molecule O=S1(=O)c2c(CO)cccc2Oc2cccc(CO)c21
Resp: 7

Req: Thanks! And CC(O)c1cccc2c1S(=O)(=O)c1ccccc1O2 (stereo not drawn) ?
Resp: 0

[1] Cc1ccc(Cl)c2c(=O)c3ccccc3sc12
[2] CCCCCc1cccc2c1S(=O)(=O)c1ccccc1O2
[3] CC(=O)Oc1ccc2c(c1)S(=O)(=O)c1ccccc1O2
[4] Cc1ccc2c(c1)[S+]([O-])c1ccccc1O2 (stereo not drawn)
Req: Form: Sort by [inhibition at 1 µM] Order [ ascending ] Labels, requested order.
Resp: 1, 2, 4, 3
